# SYSTEM UNDER TEST: KRAS G13D antigen (G13D-RT6, SEQ ID NO: 20) loaded on Lovo-DPA0301:DPB0501 cells (human)
# PROTOCOL TEXT: cell-based or functional assay
// f strictly below 0.6 ratio in TCR Mut RLU/WT RLU; t otherwise

Dear colleague, could you confirm whether B8.2.4 TCR mutant β98P-C (TCR, V domains shown) V domain 1: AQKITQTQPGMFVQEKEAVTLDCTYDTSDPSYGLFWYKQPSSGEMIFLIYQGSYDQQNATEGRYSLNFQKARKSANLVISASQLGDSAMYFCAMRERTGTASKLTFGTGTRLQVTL V domain 2: DVKVTQSSRYLVKRTGEKVFLECVQDMDHENMFWYRQDPGLGLRLIYFSYDVKMKEKGDIPEGYSVSREKKERFSLILESASTNQTSMYLCASSQTVCPQHFGDGTRLSILE has TCR Mut RLU/WT RLU at or above 0.6 ratio?
t

Dear colleague, could you confirm whether B8.2.4 TCR mutant β97V-L (TCR, V domains shown) V domain 1: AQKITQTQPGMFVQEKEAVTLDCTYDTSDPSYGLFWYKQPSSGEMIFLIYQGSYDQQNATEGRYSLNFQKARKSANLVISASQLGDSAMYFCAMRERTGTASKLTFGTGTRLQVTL V domain 2: DVKVTQSSRYLVKRTGEKVFLECVQDMDHENMFWYRQDPGLGLRLIYFSYDVKMKEKGDIPEGYSVSREKKERFSLILESASTNQTSMYLCASSQTLPPQHFGDGTRLSILE has TCR Mut RLU/WT RLU at or above 0.6 ratio?
f

Dear colleague, could you confirm whether B8.2.4 TCR mutant β96T-E (TCR, V domains shown) V domain 1: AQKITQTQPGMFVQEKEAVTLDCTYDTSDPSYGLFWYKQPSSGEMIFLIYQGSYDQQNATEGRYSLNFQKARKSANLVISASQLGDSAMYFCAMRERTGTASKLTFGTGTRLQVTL V domain 2: DVKVTQSSRYLVKRTGEKVFLECVQDMDHENMFWYRQDPGLGLRLIYFSYDVKMKEKGDIPEGYSVSREKKERFSLILESASTNQTSMYLCASSQEVPPQHFGDGTRLSILE has TCR Mut RLU/WT RLU at or above 0.6 ratio?
f

Dear colleague, could you confirm whether B8.2.4 TCR mutant β96T-S (TCR, V domains shown) V domain 1: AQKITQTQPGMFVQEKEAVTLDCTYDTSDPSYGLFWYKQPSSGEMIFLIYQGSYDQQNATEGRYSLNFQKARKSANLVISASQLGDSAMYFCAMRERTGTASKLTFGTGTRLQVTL V domain 2: DVKVTQSSRYLVKRTGEKVFLECVQDMDHENMFWYRQDPGLGLRLIYFSYDVKMKEKGDIPEGYSVSREKKERFSLILESASTNQTSMYLCASSQSVPPQHFGDGTRLSILE has TCR Mut RLU/WT RLU at or above 0.6 ratio?
t

Dear colleague, could you confirm whether B8.2.4 TCR mutant β98P-V (TCR, V domains shown) V domain 1: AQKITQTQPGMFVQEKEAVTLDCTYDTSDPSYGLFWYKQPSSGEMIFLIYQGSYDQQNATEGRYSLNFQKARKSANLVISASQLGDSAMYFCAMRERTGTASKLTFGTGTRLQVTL V domain 2: DVKVTQSSRYLVKRTGEKVFLECVQDMDHENMFWYRQDPGLGLRLIYFSYDVKMKEKGDIPEGYSVSREKKERFSLILESASTNQTSMYLCASSQTVVPQHFGDGTRLSILE has TCR Mut RLU/WT RLU at or above 0.6 ratio?
t
